- Test system: Fibroblast
- ASSAY PROTOCOL: Incucyte cell viability with human fibroblast; note: unitless GR value; below 1 slowed growth and below 0 cell loss
- Assay type: toxicity, cell-based
- CONDITION: 0 h, 10 µM, compound concentration 10 uM, replicate number 1
PROPERTY NAME: Growth Rate
// keep it numeric: no unit symbol after the value

{"MOLECULE": "COc1cc(-c2nn([C@H]3CC[C@H](N4CCN(C(C)=O)CC4)CC3)c3ncnc(N)c23)ccc1NC(=O)c1cc2ccccc2n1C", "REPORTED RESULT": -1}

Give its Growth Rate value. Item: CN(C)C(=O)Cn1cc(-c2ccc(-c3cncc4ccccc34)cc2)cn1
-1

Give its Growth Rate value. Item: O=C(NC1CCNCC1)c1n[nH]cc1NC(=O)c1c(Cl)cccc1Cl [AT-7519]
-1

Give its Growth Rate value. Item: N=C(N)NCCC[C@@H](NC(=O)C(c1ccccc1)c1ccccc1)C(=O)NCc1ccc(CNC(N)=O)cc1.O=C(O)C(F)(F)F
-1

Give its Growth Rate value. Item: Cn1ncnc1COc1nn2c(-c3cc(F)ccc3F)nnc2cc1C(C)(C)C
0.93

Give its Growth Rate value. Item: CN1CCN(c2ccc(C(=O)Nc3n[nH]c4ccc(Cc5cc(F)cc(F)c5)cc34)c(NC3CCOCC3)c2)CC1 [ENTRECTINIB]
-0.42

---

- Test system: HEK-293T
- ASSAY PROTOCOL: Incucyte cell viability with HEK293T; note: unitless GR value; below 1 slowed growth and below 0 cell loss
- Type: toxicity, cell-based
- CONDITION: human, 24 h, 10 µM, compound concentration 10 uM, replicate number 2
In this section, each of the compounds is paired with its reported Growth Rate.
// keep it numeric: no unit symbol after the value

{"COMPOUND": "Cc1cn([C@H](C)CC#N)c(=O)c2cc(Cn3nc(C(F)F)cc3Cl)nn12", "Growth Rate": 0.89}

Query Growth Rate on HEK-293T for CC1CN(CC(=O)N2CC(C)(C)c3nc(CO)c(Cc4ccc(F)cc4)cc32)C(CN2CCOCC2C)CN1 (stereo not given)
0.89

Query Growth Rate on HEK-293T for O=C1CN(c2ccccc2F)C(NCCN2CCOCC2)=C1c1nc2cc(Br)ccc2c(=O)[nH]1
0.88

Query Growth Rate on HEK-293T for O=C(N[C@H]1CCCCC/C=C\C2C[C@@]2(C(=O)O)NC(=O)[C@@H]2C[C@@H](Oc3ccncc3)CN2C1=O)OC1CCCC1 (stereo not given in full)
0.89

Query Growth Rate on HEK-293T for CNC1(C)C2CCC(C2)C1(C)C.Cl (stereo not given) [MECAMYLAMINE HYDROCHLORIDE]
0.91

---

In this section, each of the molecules is paired with its reported Growth Rate.
- Tested on: HEK-293T
- ASSAY PROTOCOL: Incucyte cell viability with HEK293T; note: unitless GR value; below 1 slowed growth and below 0 cell loss
- Assay type: toxicity, cell-based
- CONDITION: human, 24 h, 10 µM, compound concentration 10 uM, replicate number 2
Numbered stars: 1 amine (or outer) side, 2 acyl side, 3 side chain; on linkers, the order of the positions; unused ones are H or OH. Bridge positions count the residues as written; N and C are the ends. Square brackets hold non-standard residues; d marks the D form. Peptide text beside a SMILES is read from it. I, II: the chains in the order shown. Hexamethylenediamine = C(CCCN[*:2])CCN[*:1]; Dip = N[C@H](C(=O)O)C(c1ccccc1)c1ccccc1; Chg = N[C@H](C(=O)O)C1CCCCC1; NMeA = CN[C@@H](C)C(=O)O
// keep it numeric: no unit symbol after the value

{"MOLECULE": "CC(C)c1cnc(NC(=O)Cc2ccccc2)s1", "REPORTED RESULT": 0.69}
{"MOLECULE": "Cn1cncc1-c1cn(-c2cccc(C(=O)Nc3cccc(C(F)(F)F)c3)c2)nn1", "REPORTED RESULT": 0.3}
{"MOLECULE": "CNC(=O)COc1cc2cc(Nc3nc(N4CCC(C(=O)N(C)C)CC4)ncc3Cl)cc(OC)c2n(C)c1=O", "REPORTED RESULT": 0.66}
{"MOLECULE": "CC1=C(C(=O)OCCO)[C@@H](c2ccc(C#N)cc2)NC(=O)N1c1cccc(C(F)(F)F)c1", "REPORTED RESULT": 0.97}
{"MOLECULE": "O=C(Nc1cc(-c2cn[nH]c2)ccc1N1CCOCC1)c1ccc(-c2ccc3ncccc3c2)o1", "REPORTED RESULT": 0.06}
{"MOLECULE": "CCS(=O)(=O)c1ccc(OC)c(Nc2ncc(-c3cccc(F)c3)o2)c1 [GW621970X]", "REPORTED RESULT": 0.8}
{"MOLECULE": "Cc1nccc(COC(=O)N2C[C@@H]3[C@@H](CNC(=O)c4ccc5[nH]nnc5c4)[C@@H]3C2)n1", "REPORTED RESULT": 0.99}
{"MOLECULE": "COc1cc(C(=O)NC2CCN(C)CC2)ccc1Nc1ncc2c(n1)N(C1CCCC1)CC(F)(F)C(=O)N2C", "REPORTED RESULT": -0.23}

Give its Growth Rate value. Item: CN[C@@H](C)C(=O)N[C@H](C(=O)N1CCC[C@H]1C(=O)N[C@H](C(=O)NCCCCCCNC(=O)[C@@H](NC(=O)[C@@H]1CCCN1C(=O)[C@@H](NC(=O)[C@H](C)NC)C1CCCCC1)C(c1ccccc1)c1ccccc1)C(c1ccccc1)c1ccccc1)C1CCCCC1 (I: H-[NMeA][Chg]P[Dip] / II: H-[NMeA][Chg]P[Dip]; linker I:C-II:C via Hexamethylenediamine)
-0.25

Give its Growth Rate value. Item: COCc1c(-c2cc3cc(C)cc(OC)c3s2)c2c(N)ncnn2c1CN[C@@H]1CCNC1=O
0.65

Give its Growth Rate value. Item: CNC(=O)c1ccc2c(c1)NC(=O)/C2=C(\Nc1ccc(CN2CCCCC2)cc1)c1ccccc1.Cl.O
0.54

Give its Growth Rate value. Item: CCS(=O)(=O)Nc1cccc(Oc2cncc(Nc3ccc(I)cc3F)c2C(N)=O)c1
0.69

Give its Growth Rate value. Item: CN1C(=O)Cc2ccc(-c3ccc(C[C@@H](C#N)NC(=O)[C@H]4N[C@@H]5CC[C@H]4C5)c(F)c3)cc21
0.95

Give its Growth Rate value. Item: O=C(O)CNC(=O)c1c(O)c2ccccc2n(Cc2ccccc2)c1=O
0.93

Give its Growth Rate value. Item: COc1cc2c(NC3CCN(C(C)C)CC3)nc(C3CCCCC3)nc2cc1OCCCN1CCCC1
-0.39

Give its Growth Rate value. Item: c1ccc2c(c1)SCc1c-2[nH]c2ccccc12
-0.38

Give its Growth Rate value. Item: COc1ncc2cc(C(=O)Nc3cc(C(=O)NCc4cccc(Cl)c4)ccc3Cl)c(=O)[nH]c2n1
0.79

Give its Growth Rate value. Item: CC1(C)OC(=O)c2ccc(Nc3ncc(-c4nnco4)c(N[C@H](CO)c4ccccc4)n3)cc21
-0.02
